Tested on: Hepatitis C virus
Experiment: Antiviral activity against Hepatitis C virus H77 genotype 1a infected in human HuH7 cells assessed as observed antiviral potency after 72 hrs by luciferase reporter gene assay
Type: functional, organism-based, Hepacivirus hominis
Conditions: genotype 1a H77, Huh-7, 72 h
readout-type: pEC50
Lab note: report pEC50 as minus log10 of the concentration in molar units, number only.

Ask | Give its pEC50 value. Item: `CC(C)N(c1cc(-c2ccccc2)sc1C(=O)O)C(=O)[C@H]1CC[C@H](C)CC1`
Reply | 5.68

Ask | # iterate: `CC1=CC[C@@H](C(=O)N(c2cc(C#CC(C)(C)C)sc2C(=O)O)C(C)C)CC1`
Reply | 7.35

Ask | # iterate: `CC(C)(C)C#Cc1cc(N(C(=O)[C@H]2CC[C@H](C)CC2)[C@H]2CC[C@H](Oc3ccncn3)CC2)c(C(=O)O)s1`
Reply | 7.12
